Target: human plasma kallikrein (Homo sapiens (Human))
Sequence (P03952 391-638): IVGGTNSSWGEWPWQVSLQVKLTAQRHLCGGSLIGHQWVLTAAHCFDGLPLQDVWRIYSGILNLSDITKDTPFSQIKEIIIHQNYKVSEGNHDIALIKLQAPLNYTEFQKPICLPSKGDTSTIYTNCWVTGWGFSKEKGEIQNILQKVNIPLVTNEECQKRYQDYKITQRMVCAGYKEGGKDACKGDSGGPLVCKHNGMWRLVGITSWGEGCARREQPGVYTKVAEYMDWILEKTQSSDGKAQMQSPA
Sequence (P03952 20-390 partner): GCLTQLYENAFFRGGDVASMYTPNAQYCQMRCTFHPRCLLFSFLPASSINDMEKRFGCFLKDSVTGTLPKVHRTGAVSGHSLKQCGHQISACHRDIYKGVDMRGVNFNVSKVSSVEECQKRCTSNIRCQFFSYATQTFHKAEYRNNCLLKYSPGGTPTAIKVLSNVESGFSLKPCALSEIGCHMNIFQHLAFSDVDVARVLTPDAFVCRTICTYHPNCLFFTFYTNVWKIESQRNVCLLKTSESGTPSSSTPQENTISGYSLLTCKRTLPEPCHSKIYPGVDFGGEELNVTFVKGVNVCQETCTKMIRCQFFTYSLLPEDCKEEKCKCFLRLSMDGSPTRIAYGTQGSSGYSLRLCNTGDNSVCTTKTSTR
Test: Kallikrein inhibition assay (FLINT) utilizing a quenched AMC peptide substrate
Type: biochemical
Details: 30 min preincubation, kinetic reads over 30 min, Z-Gly-Pro-Arg-AMC substrate 50 μM; read-out: Kallikrein Kin Inh IC50
The label satisfied is reserved for IC50 strictly under 20 nM; not satisfied covers values equal to or above it.

Compound: O=C1C=C(c2c(-n3cnnn3)ccc(Cl)c2F)C[C@H]2CC[C@H](c3ncc(-c4ccnc(COCP(=O)(O)O)c4F)[nH]3)N12 (relative stereo) [Example 37]
Class Name: not satisfied
//
Compound: CN(C)c1ccc(-c2cnc([C@@H]3CCC4CC(c5c(-n6cnnn6)ccc(Cl)c5F)=CC(=O)N43)[nH]2)c(F)n1 (stereo partly drawn) [Example 315]
Class Name: not satisfied
//
Compound: Cn1c(=O)[nH]c2cc(-c3cnc([C@@H]4CC[C@@H]5CC(c6c(-n7cnnn7)ccc(Cl)c6F)=CC(=O)N54)[nH]3)ccc21 (relative stereo) [Example 303]
Class Name: satisfied
//
Compound: CC1C[C@@H](c2ncc(-c3ccc(N)nc3F)[nH]2)N2C(=O)C=C(c3c(-n4cnnn4)ccc(Cl)c3F)CC12 (stereo partly drawn) [Example 348]
Class Name: satisfied
//
Compound: O=C1Nc2ccc(-c3cnc([C@@H]4CCC5CC(c6c(-n7cnnn7)ccc(Cl)c6F)=CC(=O)N54)[nH]3)cc2CO1 (stereo partly drawn) [Example 297]
Class Name: satisfied
//
Compound: O=C1C=C(c2c(-n3cc(C(F)(F)F)nn3)ccc(Cl)c2F)C[C@H]2CC[C@@H](c3ncc(-c4c[nH]c5ccncc45)[nH]3)N12 [Example 385]
Class Name: not satisfied
//
Compound: COCCNc1nccc(-c2cnc([C@@H]3CCC4CC(c5c(-n6cnnn6)ccc(Cl)c5F)=CC(=O)N43)[nH]2)c1F (stereo partly drawn) [Example 161]
Class Name: satisfied
//
Compound: [2H]c1nc([C@@H]2CC[C@@H]3CC(c4c(-n5cnnn5)ccc(Cl)c4F)=CC(=O)N32)[nH]c1-c1ccnc(CO)c1F [Example 117]
Class Name: not satisfied
//
Compound: O=C1C=C(c2c(-n3cnnn3)ccc(Cl)c2F)C[C@H]2CC[C@@H](c3nc(-c4cccc5[nH]ncc45)c[nH]3)N12 [Example 51]
Class Name: satisfied
//
Compound: O=C1C=C(c2c(-n3cnnn3)ccc(Cl)c2F)C[C@H]2CC[C@H](c3ncc(-c4ccnc(N5CCC[C@H](O)C5)c4F)[nH]3)N12 [Example 188]
Class Name: satisfied
//
Compound: [2H]C([2H])(O)c1nccc(-c2cnc([C@@H]3CCC4CC(c5c(-n6cnnn6)ccc(Cl)c5F)=CC(=O)N43)[nH]2)c1Cl (stereo partly drawn) [Example 189]
Class Name: satisfied
//
Compound: NC(=O)c1nccc(-c2cnc([C@@H]3CC[C@@H]4CC(c5c(-n6cnnn6)ccc(Cl)c5F)=CC(=O)N43)[nH]2)c1F [Example 181]
Class Name: satisfied
//
Compound: CC(C)C(=O)Nc1ccccc1-c1c[nH]c([C@@H]2CCC3CC(c4c(-n5cnnn5)ccc(Cl)c4F)=CC(=O)N32)n1 (stereo partly drawn) [Example 329]
Class Name: satisfied
//
Compound: COc1cc2[nH]cc(-c3cnc([C@@H]4CC[C@@H]5CC(c6c(-n7cnnn7)ccc(Cl)c6F)=CC(=O)N54)[nH]3)c2cn1 [Example 388]
Class Name: satisfied
//
Compound: O=C1Cc2cc(-c3cnc([C@@H]4CCC5CC(c6c(-n7cnnn7)ccc(Cl)c6F)=CC(=O)N54)[nH]3)ccc2N1 (stereo partly drawn) [Example 314]
Class Name: satisfied
//
Compound: NC(=O)c1cc(-c2cnc([C@@H]3CC[C@@H]4CC(c5c(-n6cnnn6)ccc(Cl)c5F)=CC(=O)N43)[nH]2)cs1 [Example 234]
Class Name: satisfied
//
Compound: CS(=O)(=O)Nc1cc(-c2[nH]c(C3CCC4CC(c5c(-n6cnnn6)ccc(Cl)c5F)=CC(=O)N43)nc2F)ccn1 (stereo not drawn) [Example 6]
Class Name: satisfied
//
Compound: O=C1C=C(c2c(-n3cnnn3)ccc(Cl)c2F)C[C@H]2CC[C@@H](c3ncc(-c4ccc(CO)nc4F)[nH]3)N12 (single isomer, unassigned) [Example 235]
Class Name: not satisfied
//
Compound: [2H]c1cc(N)nc(F)c1-c1cnc([C@@H]2CC[C@@H]3CC(c4c(-n5cnnn5)ccc(Cl)c4F)=CC(=O)N32)[nH]1 [Example 150]
Class Name: satisfied
//
Compound: O=C(c1nccc(-c2cnc([C@@H]3CC[C@@H]4CC(c5c(-n6cnnn6)ccc(Cl)c5F)=CC(=O)N43)[nH]2)c1F)N1CC(F)(F)C1 [Example 94]
Class Name: not satisfied
//
Compound: CC1(C)C[C@@H](c2ncc(-c3ccc(N)nc3Cl)[nH]2)N2C(=O)C=C(c3c(-n4cnnn4)ccc(Cl)c3F)C[C@H]21 (relative stereo) [Example 338]
Class Name: satisfied
//
Compound: Cc1c(-c2cnc([C@@H]3CCC4CC(c5c(-n6cnnn6)ccc(Cl)c5F)=CC(=O)N43)[nH]2)ccnc1N (stereo partly drawn) [Example 21]
Class Name: not satisfied
//
Compound: CNc1ccc(-c2cnc([C@@H]3CC[C@@H]4CC(c5c(-n6cnnn6)ccc(Cl)c5F)=CC(=O)N43)[nH]2)c(F)n1 (relative stereo) [Example 282]
Class Name: satisfied
//
Compound: O=C(O)c1nccc(-c2cnc([C@@H]3CC[C@@H]4CC(c5cc(Cl)ccc5-n5cc(C(F)(F)F)nn5)=CC(=O)N43)[nH]2)c1F (single isomer, unassigned) [Example 54]
Class Name: not satisfied

Origin of values: patent US20230295157A1
